Assay Comment: Toxicokinetics of S9229 in the 28-day rat study
Format: in vivo, Sprague-Dawley rats
Measurement Conditions: female, Sprague-Dawley (Crl:CD(SD)), rat, plasma, po, 100 mg/kg, AUC0-24hr, Day 1, 100 mg/kg bw, F
Measure: AUC(0-t) (ng·h/mL)

- Molecule: "COC[C@@H](CC(C)C)NC(=O)c1ccc(C)c(C)c1 [S9229]"
  Observed Result: 267

* * *

Assay Comment: Pharmacokinetics of S9229 in rats, single iv or oral dose
Assay type: in vivo, Sprague-Dawley rats
Measurement Conditions: female, Sprague-Dawley, rat, plasma, po, 100 mg/kg

- Smiles Structure: "COC[C@@H](CC(C)C)NC(=O)c1ccc(C)c(C)c1"
  half-life [h]: 1.03

* * *

Assay Comment: Pharmacokinetics of S807 in rats, single iv or oral dose
Assay type: in vivo, Sprague-Dawley rats
Measurement Conditions: male, Sprague-Dawley, rat, plasma, iv, 1 mg/kg

- Compound: "CCCC(CCC)NC(=O)c1ccc2c(c1)OCO2 [S807]"
  AUC(0-t), ng·h/mL: 491

* * *

Assay Comment: Pharmacokinetics of S9229 in rats, single iv or oral dose
Assay type: in vivo, Sprague-Dawley rats
Measurement Conditions: female, Sprague-Dawley, rat, plasma, po, 10 mg/kg

- Compound: "COC[C@@H](CC(C)C)NC(=O)c1ccc(C)c(C)c1 [S9229]"
  Result Unit: "ng·h/mL"
  AUC(0-t): 15.2

* * *

Assay Comment: Pharmacokinetics of S807 in rats, single iv or oral dose
Type: in vivo, Sprague-Dawley rats
Measurement Conditions: male, Sprague-Dawley, rat, plasma, po, 50 mg/kg

- Smiles Structure: "CCCC(CCC)NC(=O)c1ccc2c(c1)OCO2"
  half-life (h): 1.83

* * *

Assay Comment: Toxicokinetics of S9229 in the 28-day rat study
Assay type: in vivo, Sprague-Dawley rats
Measurement Conditions: female, Sprague-Dawley [Crl:CD(SD)], rat, plasma, po, 10 mg/kg, Tmax, Day 28, 10 mg/kg bw, F
Measure: Tmax (h)

- Compound: "COC[C@@H](CC(C)C)NC(=O)c1ccc(C)c(C)c1 [S9229]"
  Result Unit: "h"
  Observed Result: 1

* * *

Assay Comment: Pharmacokinetics of S807 in rats, single iv or oral dose
Format: in vivo, Sprague-Dawley rats
Measurement Conditions: female, Sprague-Dawley, rat, plasma, po, 20 mg/kg

- Smiles Structure: "CCCC(CCC)NC(=O)c1ccc2c(c1)OCO2"
  half-life / min: 64.2

* * *

Assay Comment: Pharmacokinetics of S807 in rats, single iv or oral dose
Type: in vivo, Sprague-Dawley rats
Measurement Conditions: male, Sprague-Dawley, rat, plasma, iv, 1 mg/kg
Measure: Tmax (min)

- Molecule: "CCCC(CCC)NC(=O)c1ccc2c(c1)OCO2 [S807]"
  Observed Result: 1.98

* * *

Assay Comment: Toxicokinetics of S9229 in the 28-day rat study
Format: in vivo, Sprague-Dawley rats
Measurement Conditions: male, Sprague-Dawley (Crl:CD(SD)), rat, plasma, po, 10 mg/kg, AUC0-24hr, Day 1, 10 mg/kg bw, M

- Smiles Structure: "COC[C@@H](CC(C)C)NC(=O)c1ccc(C)c(C)c1"
  AUC(0-t) / ng·h/mL: 3.9

* * *

Assay Comment: Pharmacokinetics of S9229 in rats, single iv or oral dose
Assay type: in vivo, Sprague-Dawley rats
Measurement Conditions: male, Sprague-Dawley, rat, plasma, po, 30 mg/kg

- Smiles Structure: "COC[C@@H](CC(C)C)NC(=O)c1ccc(C)c(C)c1"
  half-life / h: 1.78
